Values from PubChem BioAssay AID624167

Target: UniProt Q6IN02
Assay: Peg3 promoter luciferase inhibitors, potency, dose response, cell-based, HeLa, CREF/GAPDH counter-screen panel (AID 624167)
Settings: HeLa PEG-Prom luciferase reporter, overnight, CREF/GAPDH counter-screens, mean of runs
The source made the active and inactive calls.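 Rule for the calls: active = mean IC50 for reducing PEG3 promoter reporter signal at or below a set limit, with IC50 above the limit in both counter screens; inactive = the rest, including counter screen hits.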
Please answer using one outcome listed in active, inactive

Reference set (3 entries):
• CSc1ccc(CN(C)C(=O)C(Cc2ccccc2)NC(=O)c2ccccc2)cc1 (stereo not given) = inactive
• CCCCC(=O)NC(c1ccccc1Cl)c1ccc2cccnc2c1O (stereo not given) = inactive
• CCCN(CCC)CCCNC(=S)Nc1ccc2nc(N3CCCC3)cc(C)c2c1 = inactive

Consider the additional compound presented here.
// query Record lookup: outcome of this test for "Cc1ccc(-c2nnc(N3CCN(c4ccccn4)CC3)c3ccccc23)cc1" ?
// result active

----------
Test system: PEG-3
Assay: Peg3 promoter luciferase inhibitors, potency, dose response, cell-based, HeLa, CREF/GAPDH counter-screen panel (AID 624167)
Details: HeLa PEG-Prom luciferase reporter, overnight, CREF/GAPDH counter-screens, run 1, dose range 1, individual replicate IC50 per panel
observation type: pIC50
// pIC50 is dimensionless: -log10 of concentration (M)

- Cc1ccc2nc(-c3ccccc3)cn2c1: 5.99
- CCCOc1ccc(NC(=O)CC2C(=O)N(CC)C(=S)N2CCCN2CCN(Cc3ccccc3)CC2)cc1 (configuration not stated): 4.69
- O=C(c1cc(-c2cccs2)nn1-c1ccccc1)N1CCN(S(=O)(=O)c2ccccc2)CC1: 5.05
- Cc1ccc(C(=O)Nc2cc3ccccc3oc2=O)cc1: 6.49

Please find the next compound below.
// query Fill in the blank: the reported pIC50 of "OCCNCc1cc(Br)ccc1OCc1ccc(Cl)cc1Cl" is ____.
// result 4.77

----------
Form field: pIC50 (one value per entry).
Test system: Rat fibroblasts (CREF)
Test: Peg3 promoter luciferase inhibitors, potency, dose response, cell-based, HeLa, CREF/GAPDH counter-screen panel (AID 624167)
Settings: CREF/GAPDH counter-screens, run 2, dose range 1, individual replicate IC50 per panel
// pIC50 is dimensionless: -log10 of concentration (M)

* COc1cccc(/C=N/NC(=O)c2ccc(-c3ccccc3)cc2)c1O | 4.52
* CCOc1ccc(NC(=O)c2ccccn2)cc1 | 5.78
* COc1ccc(OCc2cccc(C(=O)O)c2)cc1 | 4.97
* Cc1cc(C2=NNC(=NC3CC3)SC2)c(C)n1-c1ccccc1F | 5.41
* CCC1(OC(=O)CN)C(=O)OCc2c1cc1n(c2=O)Cc2cc3ccccc3nc2-1 (stereo unspecified) | 5.77

// query // lookup pIC50 | system=Rat fibroblasts (CREF) | key= "Cc1ccc2nc(-c3ccc4c(c3)OCCO4)cn2c1"
// result 6.11

// query // lookup pIC50 | system=Rat fibroblasts (CREF) | key= "CN=c1sc2c(n1C)C(=O)c1ccccc1C2=O"
// result 5.30

// query // lookup pIC50 | system=Rat fibroblasts (CREF) | key= "COc1ccc(-n2c(O)c(/C=N/Nc3nc(C)cc(C)n3)c3ccccc3c2=O)cc1OC"
// result 4.24

// query // lookup pIC50 | system=Rat fibroblasts (CREF) | key= "CN(C)c1ccc(C=c2c3ccccc3n3c2cc(-c2ccccc2)[n+]3C)cc1"
// result 4.50

----------
Tested on: Rat fibroblasts (CREF)
Assay: Peg3 promoter luciferase inhibitors, potency, dose response, cell-based, HeLa, CREF/GAPDH counter-screen panel (AID 624167)
Details: CREF/GAPDH counter-screens, run 1, dose range 1, individual replicate IC50 per panel
observation type: pIC50
// pIC50 is dimensionless: -log10 of concentration (M)

- O=C1C=CC(=O)N1c1ccc(-c2nc3ccccc3o2)cc1: 5.26
- Cc1cc(S(=O)(=O)c2ccc(Cl)cc2)nc(S(=O)(=O)c2ccc(Cl)cc2)c1C#N: 4.96
- CN(C)c1ccc(/C=C2\SC(=O)N(CCc3nnc(N)s3)C2=O)cc1: 5.79
- CCCSc1ccc2nc(-c3ccccc3)cn2c1: 5.99
- Cc1ccc2nc(C)cc(Nc3ccc([N+](=O)[O-])cc3)c2c1: 5.07

// query Fill in the blank: the reported pIC50 of "Cc1ccc(C(=O)Nc2ncc([N+](=O)[O-])s2)cc1" is ____.
// result 5.23

// query Fill in the blank: the reported pIC50 of "O=C(O)c1ccc(CN2C(=O)c3cccc4c([N+](=O)[O-])ccc(c34)C2=O)cc1" is ____.
// result 4.53

// query Fill in the blank: the reported pIC50 of "COC(=O)c1nn(-c2ccc3c(c2)CCN3C(C)=O)cc1O" is ____.
// result 5.30

----------
System: PEG-3
Test: Peg3 promoter luciferase inhibitors, potency, dose response, cell-based, HeLa, CREF/GAPDH counter-screen panel (AID 624167)
Details: HeLa PEG-Prom luciferase reporter, overnight, CREF/GAPDH counter-screens, run 1, dose range 1, individual replicate IC50 per panel
Form field: IC50 (one value per entry).
Write down the numeric answer in µM and omit the unit.

Reference set, count: 3
- CN(C)c1ccc(/C=C/c2ccc3c4ccccc4ccc3[n+]2-c2ccccc2)cc1: 10.5
- Cc1cc(-n2c(SCC(=O)Nc3ccc(F)c(F)c3)nc3n[nH]c(C)c3c2=N)ccc1Cl: 41
- Cc1cc(N2CCN(C)CC2)ccc1NC(=O)c1c2c(nc3ccccc13)CCN(Cc1ccccc1)C2: 5.6

// query // lookup IC50 | system=PEG-3 | key= "CC(=O)c1cccc(NC(=O)c2cccc3c(-c4cccnc4)coc23)c1"
// result 25.6

// query // lookup IC50 | system=PEG-3 | key= "Cc1cccc(CS(=O)(=O)c2ncc(Cl)c(C(=O)Nc3ccc(F)cc3)n2)c1"
// result 6.01

----------
System: Rat fibroblasts (CREF)
Experiment: Peg3 promoter luciferase inhibitors, potency, dose response, cell-based, HeLa, CREF/GAPDH counter-screen panel (AID 624167)
Settings: CREF/GAPDH counter-screens, mean of runs
Active and inactive are the calls of the source.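 How the source made its calls: active means mean IC50 for reducing PEG3 promoter reporter signal at or below a set limit, with IC50 above the limit in both counter screens; inactive means the rest, including counter screen hits.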
Please answer using one outcome listed in active, inactive

* COc1cccc(OC)c1C(=O)Nc1cc(C)nn1-c1nc2ccccc2[nH]1 | inactive

// query Record lookup: outcome of this test for CCCC(=O)NC(c1ccccc1)c1ccc2cccnc2c1O (centres undefined) ?
// result active

// query Record lookup: outcome of this test for "Cc1cccc(CS(=O)(=O)c2ncc(Cl)c(C(=O)Nc3ccc(F)cc3)n2)c1" ?
// result active

----------
Target: UniProtKB Q6IN02
Test: Peg3 promoter luciferase inhibitors, potency, dose response, cell-based, HeLa, CREF/GAPDH counter-screen panel (AID 624167)
Settings: HeLa PEG-Prom luciferase reporter, overnight, CREF/GAPDH counter-screens, mean of runs
Active and inactive are the calls of the source.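 How the source made its calls: active means mean IC50 for reducing PEG3 promoter reporter signal at or below a set limit, with IC50 above the limit in both counter screens; inactive means the rest, including counter screen hits.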
Please answer using one outcome listed in T for active, F for inactive

* COCCn1c(C)cc(C2=NNC(=NC3CC3)SC2)c1C | T
* N/C(=N\OC(=O)c1ccccc1)C(C(=O)NOC(=O)c1ccccc1)C1CCCCC1 (configuration not stated) | F
* COc1cccc(-c2cnc3c(NC=O)cc(-c4cccc(C(=O)N(C)C)c4)cn23)c1 | T

// query Record lookup: outcome of this test for "O=C(Cc1csc(Nc2nc(=S)[nH]c3ccccc23)n1)NCc1ccccc1Cl" ?
// result F

// query Record lookup: outcome of this test for "CC(=O)Nc1ccc(S(=O)(=O)N(Cc2ccco2)Cc2cc3ccccc3[nH]c2=O)cc1" ?
// result F

// query Record lookup: outcome of this test for "O=C(NCCc1ccccc1)c1ccc2c(c1)OCO2" ?
// result T

// query Record lookup: outcome of this test for O=c1[nH]c(=O)n(C2OC(CO)C(O)C2O)cc1F (configuration not stated) ?
// result T

// query Record lookup: outcome of this test for "Cc1cccc(C)c1NC(=O)c1nc(S(=O)(=O)Cc2ccccc2)ncc1Cl" ?
// result T

// query Record lookup: outcome of this test for "Cc1ccc(S(=O)(=O)N2CCCCC2)cc1C(=O)N(C)CC(=O)Nc1ccc(Cl)c(C(F)(F)F)c1" ?
// result F

// query Record lookup: outcome of this test for "Oc1[nH]c2ccc(Br)cc2c1N=NC(=S)N1CCOCC1" ?
// result T

----------
Target: PEG-3 (UniProt Q6IN02)
Sequence (Q6IN02 whole entry, looked up): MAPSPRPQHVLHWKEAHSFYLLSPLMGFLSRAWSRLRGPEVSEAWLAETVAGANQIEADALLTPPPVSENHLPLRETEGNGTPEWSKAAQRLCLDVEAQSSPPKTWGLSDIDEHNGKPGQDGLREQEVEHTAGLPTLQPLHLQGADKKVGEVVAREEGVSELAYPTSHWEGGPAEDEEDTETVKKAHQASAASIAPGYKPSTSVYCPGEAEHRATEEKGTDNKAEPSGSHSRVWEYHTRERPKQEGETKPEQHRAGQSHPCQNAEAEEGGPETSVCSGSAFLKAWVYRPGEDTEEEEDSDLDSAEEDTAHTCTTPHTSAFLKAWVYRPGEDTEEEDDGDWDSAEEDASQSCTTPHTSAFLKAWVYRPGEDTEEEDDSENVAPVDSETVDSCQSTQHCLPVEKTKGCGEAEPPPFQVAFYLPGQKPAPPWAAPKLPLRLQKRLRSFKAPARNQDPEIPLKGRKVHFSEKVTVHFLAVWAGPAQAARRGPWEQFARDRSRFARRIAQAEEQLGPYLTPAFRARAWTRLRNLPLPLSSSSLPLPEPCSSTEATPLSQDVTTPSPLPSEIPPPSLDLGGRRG
Assay: Peg3 promoter luciferase inhibitors, potency, dose response, cell-based, HeLa, CREF/GAPDH counter-screen panel (AID 624167)
Conditions: HeLa PEG-Prom luciferase reporter, overnight, CREF/GAPDH counter-screens, mean of runs
Calls of active or inactive are those of the source.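 The calls were made as follows: active = mean IC50 for reducing PEG3 promoter reporter signal at or below a set limit, with IC50 above the limit in both counter screens; inactive = the rest, including counter screen hits.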
Please answer using one outcome listed in label 1 for active, label 0 for inactive

- CN(CC(=O)Nc1ccc(Cl)c(C(F)(F)F)c1)C(=O)c1cc(-c2ccncc2)nc2ccccc12: label 1

// query Record lookup: outcome of this test for "COc1ccc(C(=O)NNC(=O)c2ccccn2)cc1" ?
// result label 1

// query Record lookup: outcome of this test for "O=Cc1cn(Cc2cccc(F)c2)c2ccccc12" ?
// result label 0

// query Record lookup: outcome of this test for "Cc1ccc(Cn2c(=N)n(CC(=O)c3ccccc3)c3ccccc32)cc1" ?
// result label 1
